# STUDY_TARGET: muscle-type nicotinic acetylcholine receptor from the electric organ of Torpedo californica (Torpedo californica (endogenous in electric organ)) (UniProt P02710)
# EXPERIMENTAL_DETAILS: radioligand binding
MEASUREMENT_LABEL: pIC50
Convention used: pIC50 is expressed as -log10 of the molar concentration.

Input line: Look up pIC50 of recombinant SLURP-1 with one additional N-terminal Met residue (natural protein) MLKCYTCKEPMTSASCRTITRCKPEDTACMTTLVTVEAEYPFNQSPVVTRSCSSSCVATDPDSIGAAHLIFCCFRDLCNSEL and report it.
Output line: 5.02

Input line: Look up pIC50 of synthetic SLURP-1 (natural protein) LKCYTCKEPMTSASCRTITRCKPEDTACMTTLVTVEAEYPFNQSPVVTRSCSSSCVATDPDSIGAAHLIFCCFRDLCNSEL and report it.
Output line: 5.41
